# System: HCT-116 colon
# MEASUREMENT DESCRIPTION: NCI tumour cell line growth inhibition, 48 h; in the data active means GI50 below about 0.43 µM; inactive means the rest
Form entry, call: pick from active, inactive

// known answers, use as guide
RECORD SMILES: CC[O-].CC[O-].COc1ccc(C(=O)[CH-]C(C)=O)cc1OC.COc1ccc(C(=O)[CH-]C(C)=O)cc1OC.[Ti+4]
SYSTEM UNDER TEST: HCT-116 colon
CLASS LABEL: inactive
//
RECORD SMILES: N.N.N.N.N.N#Cc1nn[n-]n1.[Cl-].[Co+3]
SYSTEM UNDER TEST: HCT-116 colon
CLASS LABEL: inactive
//
RECORD SMILES: O=C(CN1CCN(CCN2C(=O)c3cccc4cccc(c34)C2=O)CC1)Nc1ccc2ncsc2c1
SYSTEM UNDER TEST: HCT-116 colon
CLASS LABEL: inactive
//
RECORD SMILES: O=C(COc1cccc(/C=C2\COc3ccccc3C2=O)c1)c1ccccc1
SYSTEM UNDER TEST: HCT-116 colon
CLASS LABEL: inactive

Record request — test call for Cc1cc2c(C(=O)NCC#N)cccc2n1-c1nc2c(c(NCc3ccccc3)n1)CCCC2
active

Record request — test call for CCC[CH2][Sn]1([CH2]CCC)[O]C(=O)CN=C(C)c2ccccc2[O]1
inactive

Record request — test call for CCOC(=O)Nc1ccc2nc(N3CCCCCC3)sc2c1
inactive

Record request — test call for Fc1ccc(Nc2ncc(-c3cc(F)c(Cl)cc3Cl)s2)cc1Cl
inactive

Record request — test call for CC[C@@]1(O)C(=O)OCc2c1cc1n(c2=O)Cc2cc3c(CN(C)C)c(O)ccc3nc2-1
active

Record request — test call for Nc1c(C(=O)c2ccc(C#CCN3CCOCC3)cc2)cnn1-c1ccc(F)cc1
inactive

Record request — test call for O=C(NCCCl)NCCN1c2nc3ccccc3cc2Sc2cc3ccccc3nc21
inactive

Record request — test call for COc1ccc(/C(=C/c2ccc3ccccc3c2)c2nn[nH]n2)cc1OC
inactive

Record request — test call for CCCCCCCCCCCCNC(=O)N[C@H](C(=O)N[C@H]1/C=C/CCNC(=O)/C=C/[C@H](C)NC1=O)C(C)C
active

Record request — test call for C[C@]12CCCN1CC1=NNC(=O)c3cc(F)cc4[nH]c2c1c34
inactive

Record request — test call for Cc1cncc(-c2nc(NCCc3c[nH]c4ccccc34)c3ncn(C(C)C)c3n2)c1
inactive

Record request — test call for Cc1cc(O[C@@H]2O[C@@H](C)[C@H](O)[C@@H](O)[C@H]2O)c2c3c(c(O[C@@H]4O[C@@H](C)[C@H](O)[C@@H](O)[C@H]4O)cc2c1)C(=O)c1c(O)cccc1C3=O
inactive

Record request — test call for O=c1c2cccc(F)c2sc2c(NCCCNCCO)nc3ccccc3c12
inactive

Record request — test call for Cc1ccc(S(=O)(=O)OCC(=O)Nc2ccc(C(=O)O)c(O)c2)cc1
inactive

Record request — test call for C=C[C@H]1CN2CCc3c([nH]c4c([C@@H]5CCCN5C)c(O)ccc34)[C@@H]2C[C@@H]1C[C@H]1c2[nH]c3ccccc3c2CCN1C
inactive

This collection of values is drawn from PubChem BioAssay (NCI).
